# System: HCT-116 cells
# Assay Explanation: Inhibition of cell growth (MTT tetrazolium salt assay)
# Format: cell-based
# Settings: Homo sapiens, read-out: HCT116 IC90
Measured Quantity: IC90 (nM)
Form entry: value (nM) — number only.

Some compounds with recorded IC90:
{"Compound": "Nc1nc(Nc2ccc(S(=O)(=O)NCc3cccs3)cc2)sc1C(=O)c1c(F)cccc1F [A(27)]", "Unit Symbol": "nM", "Recorded Number": 1000}
{"Compound": "Nc1nc(Nc2ccc(S(=O)(=O)NCCNc3ccccc3)cc2)sc1C(=O)c1c(F)cccc1F [Example A(9)]", "Unit Symbol": "nM", "Recorded Number": 400}

(Q) Entry CN(C)CCNS(=O)(=O)c1ccc(Nc2nc(N)c(C(=O)c3c(F)cccc3F)s2)cc1 [Example A(2)] needs its IC90 filled in; supply it.
(A) 1100

(Q) Respond only with IC90 recorded for CC(CCCC(C)(C)O)NS(=O)(=O)c1ccc(Nc2nc(N)c(C(=O)c3c(F)cccc3F)s2)cc1 (centres unmarked) [Example A(12)]
(A) 630

(Q) Output IC90 of Nc1nc(Nc2ccc(SCCO)cc2)sc1C(=O)c1c(Cl)cccc1Cl [Y(2)]
(A) 13000

====

# Study System: CDK4/cyclin D3 (Homo sapiens)
# Construct: made in house; host or cells: insect cells (baculovirus co-infection)
# Assay Explanation: Inhibition of CDK4/Cyclin D retinoblastoma kinase activity
# Assay type: biochemical
# Settings: test compound at 0.1 μM; read-out: % Inhib CDK4/D @ 0.1 μM
Mark Not fulfilled for inhibition at 0.1 µM values under 20%, and Fulfilled for everything at or above.

Please review the entries below; each comes with its answer.
{"Compound": "Nc1nc(Nc2cccc([S+]([O-])CCN3CCCCC3)c2)sc1C(=O)c1c(Cl)cccc1Cl (stereo not shown)", "Study System": "CDK4/cyclin D3 (Homo sapiens)", "Answer Label": "Fulfilled"}
{"Compound": "CCOCC[S+]([O-])c1ccc(Nc2nc(N)c(C(=O)c3c(Cl)cccc3Cl)s2)cc1 (stereo not shown)", "Study System": "CDK4/cyclin D3 (Homo sapiens)", "Answer Label": "Fulfilled"}
{"Compound": "CC1(C[S+]([O-])c2cccc(Nc3nc(N)c(C(=O)c4c(Cl)cccc4Cl)s3)c2)CO1 (stereo not shown)", "Study System": "CDK4/cyclin D3 (Homo sapiens)", "Answer Label": "Fulfilled"}
{"Compound": "CC(C)=CC[S+]([O-])c1cccc(Nc2nc(N)c(C(=O)c3c(Cl)cccc3Cl)s2)c1 (stereo not shown)", "Study System": "CDK4/cyclin D3 (Homo sapiens)", "Answer Label": "Not fulfilled"}
{"Compound": "Nc1nc(Nc2cccc(SCCN3CCOCC3)c2)sc1C(=O)c1c(Cl)cccc1Cl", "Study System": "CDK4/cyclin D3 (Homo sapiens)", "Answer Label": "Not fulfilled"}
{"Compound": "CC(CSc1ccc(Nc2nc(N)c(C(=O)c3c(Cl)cccc3Cl)s2)cc1)CN(C)C (stereo not shown)", "Study System": "CDK4/cyclin D3 (Homo sapiens)", "Answer Label": "Not fulfilled"}
{"Compound": "Nc1nc(Nc2cccc([S+]([O-])CCCO)c2)sc1C(=O)c1c(Cl)cccc1Cl (stereo not shown)", "Study System": "CDK4/cyclin D3 (Homo sapiens)", "Answer Label": "Fulfilled"}
{"Compound": "CC(C)(CO)C[S+]([O-])c1ccc(Nc2nc(N)c(C(=O)c3c(Cl)cccc3Cl)s2)cc1 (stereo not shown)", "Study System": "CDK4/cyclin D3 (Homo sapiens)", "Answer Label": "Fulfilled"}

(Q) Is it the case that Nc1nc(Nc2cccc(SCCN3CCCC3)c2)sc1C(=O)c1c(Cl)cccc1Cl has inhibition at 0.1 µM reaching or exceeding 20%?
(A) Not fulfilled

(Q) Is inhibition at 0.1 µM for CC(CN(C)C)C[S+]([O-])c1cccc(Nc2nc(N)c(C(=O)c3c(Cl)cccc3Cl)s2)c1 (stereo not shown) at or above 20%?
(A) Fulfilled

(Q) Answer whether inhibition at 0.1 µM of COC(=O)CSc1cccc(Nc2nc(N)c(C(=O)c3c(Cl)cccc3Cl)s2)c1 is greater than or equal to 20%.
(A) Fulfilled

(Q) Does the compound CC(C)OC(=O)CCSc1cccc(Nc2nc(N)c(C(=O)c3c(Cl)cccc3Cl)s2)c1 have recorded inhibition at 0.1 µM that is 20% or more?
(A) Fulfilled

(Q) hey, is inhibition at 0.1 µM for this one >= 20%? CCOCCSc1cccc(Nc2nc(N)c(C(=O)c3c(Cl)cccc3Cl)s2)c1
(A) Fulfilled

====

# Study System: CDK4/cyclin D3 (Homo sapiens)
# Assay Explanation: Inhibition of CDK4/Cyclin D retinoblastoma kinase activity
# Settings: apparent Ki, Rb fragment substrate
Measured Quantity: log10 of Ki (log10 of the value in nM)
Transform log10 | Measure Ki | Unit nM

{"Compound": "NC(=O)C[S+]([O-])c1ccc(Nc2nc(N)c(C(=O)c3c(Cl)cccc3Cl)s2)cc1 (stereo not shown)", "Study System": "CDK4/cyclin D3 (Homo sapiens)", "log10 of Ki": 1.18}
{"Compound": "Cc1ccc(C(C)NS(=O)(=O)c2ccc(Nc3nc(N)c(C(=O)c4c(F)cccc4F)s3)cc2)o1 (stereo not shown)", "Study System": "CDK4/cyclin D3 (Homo sapiens)", "log10 of Ki": 0.95}

(Q) Item CC(C)CCCCNS(=O)(=O)c1ccc(Nc2nc(N)c(C(=O)c3c(F)cccc3F)s2)cc1 : provide log10 of Ki
(A) 1.54

(Q) Supply reported log10 of Ki belonging to this compound: Nc1nc(Nc2ccc(S(=O)(=O)NC3CCNCC3)cc2)sc1C(=O)c1c(F)cccc1F
(A) 1.11

(Q) Using the record for CSc1cccc(Nc2nc(N)c(C(=O)c3c(Cl)cccc3Cl)s2)c1 , state its measured log10 of Ki.
(A) 1.87

====

# Study System: CDK4/cyclin D3 (Homo sapiens, UniProt P11802)
# Construct: made in house; host or cells: insect cells (baculovirus co-infection)
# Sequence (P11802 whole entry): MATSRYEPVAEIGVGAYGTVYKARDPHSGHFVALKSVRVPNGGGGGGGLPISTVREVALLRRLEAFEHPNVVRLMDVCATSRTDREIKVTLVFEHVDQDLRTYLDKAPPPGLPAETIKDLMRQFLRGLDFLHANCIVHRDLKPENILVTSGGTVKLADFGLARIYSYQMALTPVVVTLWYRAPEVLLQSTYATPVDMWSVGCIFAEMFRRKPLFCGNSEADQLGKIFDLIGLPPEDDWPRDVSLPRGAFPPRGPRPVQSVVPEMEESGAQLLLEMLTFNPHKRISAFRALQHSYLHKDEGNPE
# Sequence (P30281 1-264 partner limits assumed): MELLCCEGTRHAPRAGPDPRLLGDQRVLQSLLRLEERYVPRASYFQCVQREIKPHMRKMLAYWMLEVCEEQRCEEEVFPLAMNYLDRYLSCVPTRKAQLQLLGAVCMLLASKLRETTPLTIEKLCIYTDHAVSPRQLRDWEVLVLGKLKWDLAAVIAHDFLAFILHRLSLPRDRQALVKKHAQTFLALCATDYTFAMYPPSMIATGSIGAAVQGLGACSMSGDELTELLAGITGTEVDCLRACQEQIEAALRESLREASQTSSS
# Assay Explanation: Inhibition of CDK4/Cyclin D retinoblastoma kinase activity
# Assay type: biochemical
# Settings: test compound at 0.03 (unit cell empty, head line shifted; μM); read-out: % Inhib CDK4/D @ 0.03
Listed next: entries and their corresponding inhibition at 0.03 µM.
Kindly provide the numeric value in % only, without the unit symbol.

(Q) State, in one line, measured inhibition at 0.03 µM of C=CCCSc1cccc(Nc2nc(N)c(C(=O)c3c(Cl)cccc3Cl)s2)c1 [DD(46)]
(A) 18

(Q) Tell me measured inhibition at 0.03 µM for COC(=O)/C=C/C[S+]([O-])c1cccc(Nc2nc(N)c(C(=O)c3c(Cl)cccc3Cl)s2)c1 (centres unmarked) [DD(124)] please.
(A) 2.1

(Q) Give a short answer stating reported inhibition at 0.03 µM for CCOCC[S+]([O-])c1ccc(Nc2nc(N)c(C(=O)c3c(Cl)cccc3Cl)s2)cc1 (centres unmarked) [DD(113)] .
(A) 1.1

(Q) Specify reported inhibition at 0.03 µM for the compound shown: Nc1nc(Nc2ccc([S+]([O-])CC3CCCO3)cc2)sc1C(=O)c1c(Cl)cccc1Cl (centres unmarked) [DD(98)]
(A) -12

(Q) Look up and report measured inhibition at 0.03 µM for this entry: C=CCC[S+]([O-])c1ccc(Nc2nc(N)c(C(=O)c3c(Cl)cccc3Cl)s2)cc1 (centres unmarked) [DD(86)]
(A) -9.8

(Q) Input Nc1nc(Nc2ccc(SCCCO)cc2)sc1C(=O)c1c(Cl)cccc1Cl [DD(5)] , output reported inhibition at 0.03 µM.
(A) 21

(Q) Consider the compound Nc1nc(Nc2ccc(SCc3ccncc3)cc2)sc1C(=O)c1c(Cl)cccc1Cl [DD(35)] and give its recorded inhibition at 0.03 µM.
(A) 12

(Q) Give the measured inhibition at 0.03 µM for CC(C)OC(=O)CC[S+]([O-])c1ccc(Nc2nc(N)c(C(=O)c3c(Cl)cccc3Cl)s2)cc1 (centres unmarked) [DD(118)]
(A) -0.7

====

# Study System: CDK4/cyclin D3 (Homo sapiens, UniProt P11802)
# Construct: made in house; host or cells: insect cells (baculovirus co-infection)
# Assay Explanation: Inhibition of CDK4/Cyclin D retinoblastoma kinase activity
# Type: biochemical
# Settings: test compound at 0.1 μM; read-out: % Inhib CDK4/D @ 0.1 μM
Measured Quantity: inhibition at 0.1 µM (%)
Just the number please, in %, no unit attached.

// worked examples, inhibition at 0.1 µM included
{"Compound": "NC(=O)C[S+]([O-])c1ccc(Nc2nc(N)c(C(=O)c3c(Cl)cccc3Cl)s2)cc1 (stereo not shown)", "Unit Symbol": "%", "Recorded Number": 78}
{"Compound": "Nc1nc(Nc2ccc(SCC(=O)Nc3ccccc3)cc2)sc1C(=O)c1c(Cl)cccc1Cl", "Unit Symbol": "%", "Recorded Number": 53}

(Q) Please indicate inhibition at 0.1 µM recorded for CCC[S+]([O-])c1ccc(Nc2nc(N)c(C(=O)c3c(Cl)cccc3Cl)s2)cc1 (stereo not shown)
(A) 39

(Q) Give recorded inhibition at 0.1 µM. Nc1nc(Nc2ccc(SCc3ncon3)cc2)sc1C(=O)c1c(Cl)cccc1Cl
(A) 43

(Q) Report measured inhibition at 0.1 µM; entry is CC(C)CCOC(=O)C[S+]([O-])c1ccc(Nc2nc(N)c(C(=O)c3c(Cl)cccc3Cl)s2)cc1 (stereo not shown)
(A) 32

(Q) Note down inhibition at 0.1 µM recorded for CC(C)OC(=O)CSc1cccc(Nc2nc(N)c(C(=O)c3c(Cl)cccc3Cl)s2)c1
(A) 29

(Q) Please give measured inhibition at 0.1 µM of the following entry: NC(=O)CSc1cccc(Nc2nc(N)c(C(=O)c3c(Cl)cccc3Cl)s2)c1
(A) 57
